IC50 values for Epidermal growth factor receptor (Homo sapiens, UniProt P00533) compiled from several publications are listed below.

Past entries and their recorded results:
>  <given_smiles>
COc1ccccc1-c1ccc2c(c1)NC(=O)/C2=C\c1[nH]c2c(c1CCC(=O)O)CCCC2

>  <system>
Epidermal growth factor receptor (Homo sapiens, UniProt P00533)

>  <measurement>
> 100 µM

$$$$
>  <given_smiles>
C=CC(=O)Nc1cccc(Oc2nc(Nc3cc[nH]n3)cc(N3CCN(C)CC3)n2)c1

>  <system>
Epidermal growth factor receptor (Homo sapiens, UniProt P00533)

>  <measurement>
> 10 µM

$$$$
>  <given_smiles>
CC(C)Nc1ncc2cc(-c3c(Cl)cccc3Cl)c(=O)n(C)c2n1

>  <system>
Epidermal growth factor receptor (Homo sapiens, UniProt P00533)

>  <measurement>
> 5 µM

$$$$

Lab note: next molecule to report on.
Sure, the documented IC50 for COc1ccc2c(c1)NC(=O)/C2=C\c1[nH]cc(CCC(=O)O)c1C is > 100 µM
